# measured_target: CI-M6PR (Homo sapiens (Human))
# Sequence (P11717 41-2491): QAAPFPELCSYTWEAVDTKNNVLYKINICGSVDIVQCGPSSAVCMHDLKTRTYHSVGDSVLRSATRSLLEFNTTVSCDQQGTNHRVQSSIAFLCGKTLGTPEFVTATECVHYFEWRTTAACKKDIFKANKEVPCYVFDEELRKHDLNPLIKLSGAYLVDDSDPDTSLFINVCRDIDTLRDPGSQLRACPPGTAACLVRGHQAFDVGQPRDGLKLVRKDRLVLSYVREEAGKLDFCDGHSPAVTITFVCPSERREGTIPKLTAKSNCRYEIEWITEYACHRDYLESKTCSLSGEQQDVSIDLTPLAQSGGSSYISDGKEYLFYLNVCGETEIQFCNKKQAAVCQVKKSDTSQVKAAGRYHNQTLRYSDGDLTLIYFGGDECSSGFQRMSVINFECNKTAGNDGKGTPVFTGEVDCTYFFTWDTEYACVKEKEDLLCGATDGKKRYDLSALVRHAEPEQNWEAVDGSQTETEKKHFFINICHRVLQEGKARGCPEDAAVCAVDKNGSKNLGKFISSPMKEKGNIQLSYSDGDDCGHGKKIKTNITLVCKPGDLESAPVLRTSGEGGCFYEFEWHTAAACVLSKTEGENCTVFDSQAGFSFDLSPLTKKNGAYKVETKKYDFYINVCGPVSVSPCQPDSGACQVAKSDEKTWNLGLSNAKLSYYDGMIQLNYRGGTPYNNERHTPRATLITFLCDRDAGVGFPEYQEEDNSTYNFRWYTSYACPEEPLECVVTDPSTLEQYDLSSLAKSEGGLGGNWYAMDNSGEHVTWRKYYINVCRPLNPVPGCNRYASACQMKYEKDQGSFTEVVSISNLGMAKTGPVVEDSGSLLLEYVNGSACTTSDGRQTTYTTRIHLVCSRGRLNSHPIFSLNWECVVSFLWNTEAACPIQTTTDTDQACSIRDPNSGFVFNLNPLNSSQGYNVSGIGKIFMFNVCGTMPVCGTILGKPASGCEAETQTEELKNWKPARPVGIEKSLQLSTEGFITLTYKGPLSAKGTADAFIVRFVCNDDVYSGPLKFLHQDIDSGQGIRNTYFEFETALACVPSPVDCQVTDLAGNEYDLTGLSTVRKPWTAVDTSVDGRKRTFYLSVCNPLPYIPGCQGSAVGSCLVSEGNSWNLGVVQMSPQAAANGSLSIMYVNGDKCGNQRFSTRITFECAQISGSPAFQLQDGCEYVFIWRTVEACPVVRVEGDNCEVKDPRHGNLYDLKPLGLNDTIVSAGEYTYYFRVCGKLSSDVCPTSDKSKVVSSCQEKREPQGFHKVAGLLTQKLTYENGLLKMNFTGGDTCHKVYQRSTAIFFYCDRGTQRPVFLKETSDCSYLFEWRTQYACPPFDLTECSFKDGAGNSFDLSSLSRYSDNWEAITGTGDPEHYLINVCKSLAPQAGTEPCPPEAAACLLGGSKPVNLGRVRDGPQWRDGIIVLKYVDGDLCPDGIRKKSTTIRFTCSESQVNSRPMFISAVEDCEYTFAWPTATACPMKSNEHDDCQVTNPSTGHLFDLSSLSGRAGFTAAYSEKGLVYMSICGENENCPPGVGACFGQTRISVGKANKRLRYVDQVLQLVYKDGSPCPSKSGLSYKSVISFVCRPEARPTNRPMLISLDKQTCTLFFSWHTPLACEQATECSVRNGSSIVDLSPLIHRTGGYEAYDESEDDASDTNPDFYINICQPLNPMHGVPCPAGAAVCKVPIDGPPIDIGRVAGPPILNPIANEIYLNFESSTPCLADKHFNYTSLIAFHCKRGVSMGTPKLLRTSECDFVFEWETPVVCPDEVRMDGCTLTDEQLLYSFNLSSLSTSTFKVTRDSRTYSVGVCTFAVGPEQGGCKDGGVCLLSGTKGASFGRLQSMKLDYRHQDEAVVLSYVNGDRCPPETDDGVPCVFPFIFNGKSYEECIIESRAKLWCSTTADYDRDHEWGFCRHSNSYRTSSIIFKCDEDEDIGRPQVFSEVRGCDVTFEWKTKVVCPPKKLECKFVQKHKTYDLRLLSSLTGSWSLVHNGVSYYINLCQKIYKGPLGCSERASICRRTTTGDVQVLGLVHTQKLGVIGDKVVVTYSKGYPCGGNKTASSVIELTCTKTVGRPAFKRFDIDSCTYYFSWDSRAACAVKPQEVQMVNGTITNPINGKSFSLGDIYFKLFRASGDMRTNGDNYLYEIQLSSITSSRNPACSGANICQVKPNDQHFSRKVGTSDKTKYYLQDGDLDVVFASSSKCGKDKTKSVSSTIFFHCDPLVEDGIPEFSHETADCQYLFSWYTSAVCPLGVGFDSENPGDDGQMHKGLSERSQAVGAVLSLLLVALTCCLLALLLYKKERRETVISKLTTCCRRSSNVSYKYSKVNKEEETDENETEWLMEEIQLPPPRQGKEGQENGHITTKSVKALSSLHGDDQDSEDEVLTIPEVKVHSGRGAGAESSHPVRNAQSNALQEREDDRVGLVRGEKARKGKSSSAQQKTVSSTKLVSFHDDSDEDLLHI
# protocol_description: Competitive binding of M6P analogs to biotinylated CI-M6PR on adsorbed pentamannose 6-phosphate (PMP)
# study_conditions: competitive binding technique of example 2; Example 4 experiments; read-out: 50% inhibitory concentration (IC50), affinity for CI-M6PR
pIC50: −log10 of the molar value.
endpoint_label: pIC50

>>> df
                                   compound  test_result
0  O=C[C@@H](O)[C@@H](O)[C@H](O)[C@H](O)COP(=O)(O)O [Compound M6P, mannose 6-phosphate]         4.52
